- ASSAY DETAILS: Cell proliferation in cultured mice fibroblasts infected with Moloney Sarcoma Virus
- Type: cell-based, mouse
- ASSAY SETUP: mouse, embryo fibroblasts; 3 days treatment; read-out: Cell Proliferation ID50 (B)
MEASUREMENT KIND: CC50 at 72 h
Dear colleague, please send the value followed by its unit.

Use the examples below as a reference point.
COMPOUND: COc1cccc2c1C(=O)c1c(O)c3c(c(O)c1C2=O)C[C@@](O)(C(C)=O)C[C@@H]3O[C@H]1C[C@H](N)[C@H](O)[C@H](C)O1 [IV, reference compound]
CC50 at 72 h: 0.0086 µg/mL
//
COMPOUND: COc1cccc2c1C(=O)c1c(O)c3c(c(O)c1C2=O)C[C@@](O)(C(C)=O)C[C@@H]3O[C@H]1C[C@H](N)[C@@H](O)[C@H](C)O1 [VI]
CC50 at 72 h: 0.013 µg/mL

Consider the additional compound presented here.
Req: What CC50 at 72 h value was documented for this compound, COc1cccc2c1C(=O)c1c(O)c3c(c(O)c1C2=O)C[C@@](O)(C(C)=O)C[C@@H]3O[C@@H]1C[C@H](N)[C@@H](O)[C@H](C)O1 [VII] ?
Resp: 0.064 µg/mL
